Taken from patent US10774071B2.

molecular target: PD-L1 (Homo sapiens (Human)); experiment: PD-L1/PD-L1 dimerization biochemical protein-protein interaction assay (ALPHA); type: binding; conditions: 0.5 nM His tagged PD-L1 and 0.5 nM FLAG tagged PD-L1, Table 4B, read-out: AC50 PDL1 Dimer 1 nM
Sequence (Q9NZQ7 19-238): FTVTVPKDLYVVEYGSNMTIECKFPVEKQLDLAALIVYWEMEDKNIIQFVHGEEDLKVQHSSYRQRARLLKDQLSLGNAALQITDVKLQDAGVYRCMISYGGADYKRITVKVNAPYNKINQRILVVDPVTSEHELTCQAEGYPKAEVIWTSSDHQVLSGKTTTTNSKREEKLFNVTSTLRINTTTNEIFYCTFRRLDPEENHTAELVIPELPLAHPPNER
Sequence (Q9NZQ7 19-238): as above

compound	tgt	AC50 (nM)
COc1nc(-c2cccc(-c3cccc4c3CC[C@@H]4Oc3nc(OC)c(CN4CC5CCC4(C(=O)O)CC5)cc3C(F)(F)F)c2Cl)ccc1CN1CC2(CCC(=O)N2)C1 [B-226]	PD-L1 (Homo sapiens (Human))	5.33
COc1nc(-c2cccc(-c3cccc4c3CC[C@@H]4Oc3nc(OC)c(CN4CC[C@@H](C(=O)NS(C)(=O)=O)C4)cc3Cl)c2Cl)ccc1CN1CC(C)(O)C1 [B-76]	PD-L1 (Homo sapiens (Human))	83.2
COc1nc(-c2cccc(-c3cccc4c3CC[C@@H]4Oc3nc(OC)c(CN4CC5CCC4C5C(=O)O)cc3Cl)c2Cl)ccc1CNC[C@@H]1CCC(=O)N1 (stereo partly drawn) [B-174]	PD-L1 (Homo sapiens (Human))	7.97

* * *

# IC50 per record follows
target: PD-1/PD-L1 (Homo sapiens (Human)); experiment: PD-1/PD-L1 biochemical protein-protein interaction assay (ALPHA); type: binding; conditions: 0.3 nM His tagged PD-L1, 2.5 nM biotinylated Fc-PD-1, Table 3B, read-out: IC50 PD-L1-PD1

compound	tgt	unit-of-measure	IC50
COc1nc(-c2cccc(-c3cccc4c3CC[C@@H]4Oc3nc(OC)c(CN4CC[C@@H](C(=O)O)C4)cc3Cl)c2C#N)ccc1CNC[C@@H]1CCC(=O)N1 [B-73]	PD-1/PD-L1 (Homo sapiens (Human))	nM	0.064
COc1nc(O[C@H]2CCc3c(-c4cccc(-c5cnc(CNC[C@@H]6CCC(=O)N6)c(OC)n5)c4Cl)cccc32)c(Cl)cc1CNC1CC(NC(C)=O)C1 (stereo partly drawn) [B-34]	PD-1/PD-L1 (Homo sapiens (Human))	nM	0.111
COc1nc(-c2cccc(-c3cccc4c3CC[C@@H]4Oc3nc(OC)c(CN4CCC(C)(C)[C@H]4C(=O)O)cc3Cl)c2Cl)ccc1CNC[C@@H]1CCC(=O)N1 [B-183]	PD-1/PD-L1 (Homo sapiens (Human))	nM	0.064

* * *

biological target: UniProt Q9NZQ7; experiment: PD-L1/PD-L1 dimerization biochemical protein-protein interaction assay (ALPHA); format: binding; details: 0.5 nM His tagged PD-L1 and 0.5 nM FLAG tagged PD-L1, Table 4B, read-out: AC50 PDL1 Dimer 1 nM

compound	AC50, nM
COc1nc(-c2cccc(-c3cccc4c3CC[C@@H]4Oc3nc(OC)c(CN4CC[C@@](C)(C(=O)O)C4)cc3C(F)(F)F)c2Cl)ccc1CNC[C@@H]1CC(O)C(=O)N1 (stereo partly shown)	3.43
CCN(CC(=O)O)Cc1cc(C(F)(F)F)c(O[C@H]2CCc3c(-c4cccc(-c5cc(F)c(CNC[C@@H]6CCC(=O)N6)c(OC)c5)c4Cl)cccc32)nc1OC	3.64
COc1nc(-c2cccc(-c3cccc4c3CC[C@@H]4Oc3nc(OC)c(CN4CC(C(=O)O)C5(CCC5)C4)cc3Cl)c2Cl)ccc1CNC[C@@H]1CCC(=O)N1 (stereo partly shown)	35.7
COc1nc(-c2cccc(-c3cccc4c3CC[C@@H]4Oc3nc(OC)c(CN[C@@H](C)C(N)=O)cc3C(F)(F)F)c2Cl)ccc1CNC[C@@H]1CCC(=O)N1	14.2
COc1nc(-c2cccc(-c3cccc4c3CC[C@@H]4Oc3nc(OC)c(CNC4(C(=O)O)CC4)cc3C(F)(F)F)c2Cl)ccc1CN1CC2(C1)CN(C(C)=O)C2	11.8
COc1cc(-c2cccc(-c3cccc4c3CC[C@@H]4Oc3nc(OC)c(CN4CCC[C@@]4(C)C(=O)O)cc3C(F)(F)F)c2Cl)ccc1CNC[C@@H]1CCC(=O)N1	0.988
CCOc1nc(O[C@H]2CCc3c(-c4cccc(-c5ccc(CNC[C@@H]6CCC(=O)N6)c(OC)n5)c4Cl)cccc32)c(Cl)cc1CN1CC[C@H](C(=O)O)C1	27.4
COc1nc(-c2cccc(-c3cccc4c3CC[C@@H]4Oc3nc(OC)c(CN4CC(C(=O)O)C5(CCOC5)C4)cc3Cl)c2Cl)ccc1CNC[C@@H]1CCC(=O)N1 (stereo partly shown)	31.9
COc1nc(-c2cccc(-c3cccc4c3CC[C@@H]4Oc3nc(OC)c(CN4CCC[C@@]4(C)C(=O)O)cc3Cl)c2Cl)ccc1CNC[C@@H]1CCC(=O)N1	4.29
COc1nc(-c2cccc(-c3cccc4c3CC[C@@H]4Oc3nc(OC)c(CN4CCC[C@H]4C(=O)O)cc3C(F)(F)F)c2Cl)ccc1CNC[C@@H]1CCC(=O)N1	2.67
COC[C@H](NCc1cc(C(F)(F)F)c(O[C@H]2CCc3c(-c4cccc(-c5ccc(CNC[C@@H]6CCC(=O)N6)c(OC)n5)c4Cl)cccc32)nc1OC)C(=O)O	6.55
COc1cc(-c2cccc(-c3cccc4c3CC[C@@H]4Oc3nc(OC)c(CNC(C)(C)C(=O)O)cc3C(F)(F)F)c2Cl)ccc1CNC[C@@H]1CCC(=O)N1	1.62
COC(=O)[C@H]1[C@@H]2CN(Cc3cc(Cl)c(O[C@H]4CCc5c(-c6cccc(-c7ccc(CNC[C@@H]8CCC(=O)N8)c(OC)n7)c6Cl)cccc54)nc3OC)C[C@@H]21	103
COc1nc(-c2cccc(-c3cccc4c3CC[C@@H]4Oc3nc(OC)c(CN4CCC[C@]4(C)C(=O)O)cc3C(F)(F)F)c2Cl)ccc1CNC[C@@H]1CCC(=O)N1	13.2
COc1nc(-c2cccc(-c3cccc4c3CC[C@@H]4Oc3nc(OC)c(CN[C@]4(C(=O)O)C[C@H](F)C4)cc3C(F)(F)F)c2Cl)ccc1CNC[C@@H]1CCC(=O)N1	27.5
COc1nc(-c2cccc(-c3cccc4c3CC[C@@H]4Oc3nc(OC)c(CN4CC(C(=O)O)C4)cc3C(F)(F)F)c2Cl)ccc1CNC[C@@H]1CCC(=O)N1	7.82
COc1nc(-c2cccc(-c3cccc4c3CC[C@@H]4Oc3nc(OC)c(CN[C@@H](C)C(=O)O)cc3C(F)(F)F)c2Cl)ccc1CN[C@H]1C[C@](C)(O)C1	8.42
COc1nc(-c2cccc(-c3cccc4c3CC[C@@H]4Oc3nc(OC)c(CN4C[C@H](C)C[C@H]4C(=O)O)cc3Cl)c2Cl)ccc1CNC[C@@H]1CCC(=O)N1	10.9
COc1nc(-c2cccc(-c3cccc4c3CC[C@@H]4Oc3nc(OC)c(CNC4(C(=O)O)CCC4)cc3Cl)c2Cl)ccc1CNC[C@@H]1CCC(=O)N1	9.06
COc1nc(-c2cccc(-c3cccc4c3CC[C@@H]4Oc3nc(OC)c(CN4CC[C@@H](C(=O)O)C4)nc3Cl)c2Cl)ccc1CNC[C@@H]1CCC(=O)N1	31.5
COc1cc(-c2cccc(-c3cccc4c3CC[C@@H]4Oc3nc(OC)c(CN4CC[C@@H](C(=O)O)C4)cc3Cl)c2Cl)cc(F)c1CNC[C@@H]1CCC(=O)N1	10.5
COc1nc(-c2cccc(-c3cccc4c3CC[C@@H]4Oc3nc(OC)c(CN4CCCC[C@@]4(C)C(=O)O)cc3C(F)(F)F)c2Cl)ccc1CNC[C@@H]1CCC(=O)N1	2.76

* * *

biological target: PD-1/PD-L1 (Homo sapiens (Human), UniProt Q9NZQ7); assay: PD-1/PD-L1 biochemical protein-protein interaction assay (ALPHA); assay type: binding; details: 0.3 nM His tagged PD-L1, 2.5 nM biotinylated Fc-PD-1, Table 3B, read-out: IC50 PD-L1-PD1
Sequence (Q9NZQ7 19-238): as above
IC50 under 0.07 nM gets Satisfied, anything at or over 0.07 nM gets Not satisfied.

compound	discrete-label
COc1nc(-c2cccc(-c3cccc4c3CC[C@@H]4Oc3nc(OC)c(CNC4(C(=O)O)CC4)cc3C(F)(F)F)c2Cl)ccc1CN1CC(C)(O)C1 [B-171]	Satisfied
CNC(=O)CNCc1cc(C(F)(F)F)c(O[C@H]2CCc3c(-c4cccc(-c5ccc(CNC[C@@H]6CCC(=O)N6)c(OC)n5)c4Cl)cccc32)nc1OC [B-250]	Not satisfied
CCN(CC(=O)O)Cc1cc(C(F)(F)F)c(O[C@H]2CCc3c(-c4cccc(-c5cc(F)c(CNC[C@@H]6CCC(=O)N6)c(OC)c5)c4Cl)cccc32)nc1OC [B-179]	Satisfied
COc1nc(-c2cccc(-c3cccc4c3CC[C@@H]4Oc3nc(OC)c(CNC45CC(C(=O)O)(C4)C5)cc3Cl)c2Cl)ccc1CNC[C@@H]1CCC(=O)N1 [B-20]	Satisfied
COc1nc(-c2cccc(-c3cccc4c3CC[C@@H]4Oc3nc(OC)c(CN4CC[C@@H](C(=O)N=S(C)(=O)N(CC(F)(F)F)CC(F)(F)F)C4)cc3Cl)c2Cl)ccc1CNC[C@@H]1CCC(=O)N1 (some centres unmarked) [B-160]	Not satisfied
COc1cc(O[C@H]2CCc3c(-c4cccc(-c5ccc(CNC[C@@H]6CCC(=O)N6)c(OC)n5)c4Cl)cccc32)c(Cl)cc1CN1CC[C@H](C(=O)O)C1 [B-167]	Satisfied
COc1nc(-c2cccc(-c3cccc4c3CC[C@@H]4Oc3nc(OC)c(CN4CC[C@@](C)(C(=O)O)C4)cc3C(F)(F)F)c2Cl)ccc1CNC[C@@H]1CC(O)C(=O)N1 (some centres unmarked) [B-202]	Satisfied
CNC(=O)C1CN(Cc2cc(Cl)c(O[C@H]3CCc4c(-c5cccc(-c6ccc(CNC[C@@H]7CCC(=O)N7)c(OC)n6)c5Cl)cccc43)nc2OC)C1 [B-101]	Not satisfied
COc1nc(-c2cccc(-c3cccc4c3CC[C@@H]4Oc3nc(OC)c(CNC[C@@H]4CCC(=O)N4)nc3Br)c2Cl)cnc1CNC[C@@H]1CCC(=O)N1 [B-38]	Not satisfied
COc1nc(-c2cccc(-c3cccc4c3CC[C@@H]4Oc3nc(OC)c(CNC4(C(=O)O)CC4)cc3C(F)(F)F)c2Cl)ccc1CNC[C@@H]1CCC(=O)N1 [B-36]	Satisfied
